experimental_target: T1, cynoCD46-His (cynomolgus, UniProt A0A2K5WCL8 35-328)
T1 construct: extracellular domain; Immobilised by amine coupling on the SPR chip; not shown: His tag
T1 sequence: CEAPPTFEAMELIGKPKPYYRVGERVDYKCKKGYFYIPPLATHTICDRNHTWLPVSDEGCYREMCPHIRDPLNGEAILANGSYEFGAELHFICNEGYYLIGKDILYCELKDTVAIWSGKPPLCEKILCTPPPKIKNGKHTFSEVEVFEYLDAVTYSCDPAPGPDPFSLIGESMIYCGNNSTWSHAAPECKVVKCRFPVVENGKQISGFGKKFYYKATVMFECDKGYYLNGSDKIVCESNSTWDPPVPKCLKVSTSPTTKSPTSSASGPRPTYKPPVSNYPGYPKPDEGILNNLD
procedure_text: SPR, cynoCD46-His immobilised, antibody as analyte, pH 6.0
Field: kon. Provide a value for each of the binders that follow.
Answers are plain numbers, in M⁻¹ s⁻¹.

Worked cases, kon given:
BAP133-2-03-03-SL (antibody, V domains shown, the killing assays used the ADC form; also called BAP133-02-03-03-SL; CPE hit BAP133-2-03-03-SL) VH: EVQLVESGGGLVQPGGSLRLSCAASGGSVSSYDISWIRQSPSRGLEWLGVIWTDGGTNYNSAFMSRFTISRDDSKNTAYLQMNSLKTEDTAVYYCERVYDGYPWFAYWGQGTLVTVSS VL: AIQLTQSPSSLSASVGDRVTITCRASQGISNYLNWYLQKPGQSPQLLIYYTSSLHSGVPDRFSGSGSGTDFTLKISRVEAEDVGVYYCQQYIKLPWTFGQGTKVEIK; 1e+06
BAP133-2-02-12 (antibody, V domains shown, also called BAP133-02-02-12; CPE hit BAP133-2-02-12) VH: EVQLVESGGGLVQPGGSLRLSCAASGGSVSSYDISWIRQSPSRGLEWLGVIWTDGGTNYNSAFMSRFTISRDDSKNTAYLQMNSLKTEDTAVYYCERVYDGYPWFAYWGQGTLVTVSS VL: AIQLTQSPSSLSASVGDRVTITCRALQGISNYLNWYQQKPGKAPKLLIYYTSSLHSGVPSRFSGSGSGTEFTLTISSLQPDDFATYYCQQYIKLPWTFGQGTKVEIK; 1.27e+06
BA-133-04-01 (antibody, V domains shown, also called CPE hit BA133-04-01) VH: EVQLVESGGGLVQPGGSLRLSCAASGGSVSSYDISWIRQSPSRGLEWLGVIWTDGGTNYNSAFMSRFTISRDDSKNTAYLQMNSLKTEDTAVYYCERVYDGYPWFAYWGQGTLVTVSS VL: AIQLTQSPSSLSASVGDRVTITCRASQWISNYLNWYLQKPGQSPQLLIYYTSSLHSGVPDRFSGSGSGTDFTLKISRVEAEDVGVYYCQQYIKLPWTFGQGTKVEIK; 1.63e+06
BA-133-04-04 (antibody, V domains shown, the killing assays used the ADC form; also called CPE hit BA133-04-04) VH: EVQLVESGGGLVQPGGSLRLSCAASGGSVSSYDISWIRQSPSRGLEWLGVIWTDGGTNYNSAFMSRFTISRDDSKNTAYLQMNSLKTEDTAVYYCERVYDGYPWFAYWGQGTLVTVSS VL: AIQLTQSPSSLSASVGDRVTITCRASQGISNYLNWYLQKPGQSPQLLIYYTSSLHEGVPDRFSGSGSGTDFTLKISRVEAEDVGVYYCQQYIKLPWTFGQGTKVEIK; 1.42e+06
Benchmark (BM) BA-133-00-01 (antibody, V domains shown, the killing assays used the ADC form; Conjugation site and payload are not described; also called BM (bench mark)) VH: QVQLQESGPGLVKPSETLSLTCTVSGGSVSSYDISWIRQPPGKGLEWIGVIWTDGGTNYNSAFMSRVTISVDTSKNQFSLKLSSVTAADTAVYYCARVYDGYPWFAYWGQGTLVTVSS VL: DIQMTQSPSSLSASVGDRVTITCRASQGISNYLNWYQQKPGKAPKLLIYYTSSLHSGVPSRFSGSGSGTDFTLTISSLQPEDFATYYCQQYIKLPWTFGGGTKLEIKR; 1.45e+06

Parameter requested: kon. Apply to each item below.
1. BA-133-04-02 (antibody, V domains shown, also called CPE hit BA133-04-02) VH: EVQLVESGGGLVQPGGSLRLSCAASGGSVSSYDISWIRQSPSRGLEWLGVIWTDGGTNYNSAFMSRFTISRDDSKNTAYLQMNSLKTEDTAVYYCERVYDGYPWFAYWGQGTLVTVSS VL: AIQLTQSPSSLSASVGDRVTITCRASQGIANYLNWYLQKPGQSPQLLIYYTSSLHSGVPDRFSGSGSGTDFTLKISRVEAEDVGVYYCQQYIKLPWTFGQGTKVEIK
2. BA-133-04-03 (antibody, V domains shown, also called CPE hit BA133-04-03) VH: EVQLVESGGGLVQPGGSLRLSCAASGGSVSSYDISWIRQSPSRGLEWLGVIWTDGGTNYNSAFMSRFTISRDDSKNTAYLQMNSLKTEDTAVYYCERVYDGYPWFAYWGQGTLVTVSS VL: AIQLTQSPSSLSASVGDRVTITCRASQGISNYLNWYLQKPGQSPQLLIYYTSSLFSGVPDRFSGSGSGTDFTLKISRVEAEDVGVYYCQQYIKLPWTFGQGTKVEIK

1.61e+06
2.79e+06
